Assay: Caspase-3/7 induction in HepG2 cells by small molecules, qHTS cell viability counter screen (AID 1346981); also: nearly all actives have a fitted effect of over 30% in size
Conditions: CellTiter-Fluor fluorescence, 17 h; series mostly up to 92.4 µM
Results filed as inconclusive are left out. Activity calls are given as the source filed them. Calls follow the shape of the dose curve; as a rule, active = well fitted cell-killing curve with a large enough effect in the repeat runs; inconclusive = weak or mixed curves, or effect the other way; inactive = flat fitted curve, though single readings scatter.
Hi! Could you answer with just one of these? active, inactive

Here's what some known entries look like.
# Compound, Class name
data = [
    ("CCCCC/C=C/C=C/C=O", "inactive"),
    ("CCOC(=O)C(C#N)=C(c1ccccc1)c1ccccc1", "inactive"),
    ("CCCCNS(=O)(=O)c1ccccc1", "inactive"),
    ("O=C(c1ccccc1)c1ccc(O)cc1O", "inactive"),
    ("C#C[C@]1(O)CC[C@H]2[C@@H]3CCC4=Cc5oncc5C[C@]4(C)[C@H]3CC[C@@]21C", "inactive"),
]

Field: next compound
Q: Could you check what this test reported for O=C(c1ccccc1)c1ccccc1O ?
Result: inactive

###

Assay: qHTS assay for small molecule agonists of the antioxidant response element (ARE) signaling pathway - cell viability counter screen (AID 743203); also: nearly all actives have a fitted effect of over 55% in size
Conditions: ARE-bla HepG2 viability, CellTiter-Glo luminescence, 16 h; series mostly up to 73.3 µM
Results filed as inconclusive are left out. Active and inactive are the calls of the source. Calls follow the shape of the full dose curve.
Give your call using only these classes: TRUE for active, FALSE for inactive

Solved cases (5 shown):
# Compound smiles, Class name
records = [
    ("OC1CCCCCCCCCCC1", "FALSE"),
    ("O=P(O)(O)O", "FALSE"),
    ("CN1C(C(=O)Nc2ccccn2)=C(O)c2ccccc2S1(=O)=O", "FALSE"),
    ("CNCCCC12CCC(c3ccccc31)c1ccccc12", "TRUE"),
    ("OCCO", "FALSE"),
]

Now examine the next entry.
Q: Please state the recorded outcome for this compound: NNc1ccc(C(=O)O)cc1
Result: FALSE

###

Assay: qHTS assay to identify small molecule agonists of the hypoxia (HIF-1) signaling pathway - cell viability counter screen (AID 1224844); also: nearly all actives have a fitted effect of over 50% in size
Settings: HRE-bla ME-180 viability, CellTiter-Glo luminescence, 17 h; series mostly up to 76.8 µM
Inconclusive results are not listed. Activity calls are given as the source filed them. Calls follow the shape of the full dose curve.
Assay readout: outcome

Below are worked cases with known answers.
# Compound, outcome
rows = [
    ("CCCCCCCCCCCO", "inactive"),
    ("COC(=O)Nc1nc2ccc(S(=O)c3ccccc3)cc2[nH]1 (configuration not stated)", "inactive"),
    ("O=C(Nc1ccc(Cl)cc1)Nc1ccc(Cl)c(Cl)c1", "inactive"),
    ("COC(=O)c1ccccc1", "inactive"),
    ("CC(CCC(=O)O)(c1ccc(O)cc1)c1ccc(O)cc1", "inactive"),
    ("c1ccc2cc(Nc3ccc(Nc4ccc5ccccc5c4)cc3)ccc2c1", "inactive"),
    ("Cc1c(C(N)=O)cc([N+](=O)[O-])cc1[N+](=O)[O-]", "inactive"),
    ("C[C@]12CCC(=O)C=C1CC[C@@H]1[C@@H]2C(=O)C[C@@]2(C)[C@H]1CC[C@]2(O)C(=O)CO", "inactive"),
    ("CNCCCC12CCC(c3ccccc31)c1ccccc12", "inactive"),
    ("COc1ccc(C(=O)CC(=O)c2ccc(C(C)(C)C)cc2)cc1", "inactive"),
]

List the reported outcome of each compound below.
1. C#C[C@]1(O)CC[C@H]2[C@@H]3CCC4=Cc5oncc5C[C@]4(C)[C@H]3CC[C@@]21C
2. O=C1c2cccc(O)c2C(=O)c2c(O)cccc21

Result:
["inactive", "inactive"]

Source: PubChem BioAssay (Tox21)
